FYI, the data here is from the RNAGym collection of RNA variant scans (doi:10.7554/elife.80360).

B1: HDV Ribozyme (parent)
chain: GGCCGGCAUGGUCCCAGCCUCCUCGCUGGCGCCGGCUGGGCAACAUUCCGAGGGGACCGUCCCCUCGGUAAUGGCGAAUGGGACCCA

# Variants of: B1
# assay comment: self-cleavage, relative activity (ratio to wild type); higher = more cleavage; co-transcriptional
Use 0.6 as the dividing line for self-cleavage, with the line itself on the yes (1) side and lower values as no (0).

// below: answered variants
C49A U60C ... yes (1)
G59U ... yes (1)
A43G U79A ... no (0)
G11U A43U ... no (0)
U37A C49A ... no (0)

Evaluate C41G A70C : self-cleavage at minimum 0.6?
no (0)

Does self-cleavage meet or surpass 0.6 for G5U G50A ?
no (0)

Does the reported self-cleavage for G68A U69C fall at or above the 0.6 mark?
yes (1)

Exam item: decide whether the reported self-cleavage for C22U C63U is at least 0.6.
yes (1)

Given A42G A51G , state whether its self-cleavage is at least 0.6.
no (0)
